Every entry's value here was drawn from paper PMC11996967.

# System: U-118 MG
# Method summary: cells
# Set-up: glioma cell line sensitivity to 2OHOA, half maximal inhibitory concentration
# Run parameters: Homo sapiens, U-118-MG
Parameter: IC50 (µM)
API: value field is a number in µM; no unit string.

Ask: I am curious: what IC50 value has been reported for CCCCCCCC/C=C\CCCCCCC(O)C(=O)O (stereo not drawn) [2OHOA, 2-hydroxy-9-cis-ocadecenoic acid] ?
Result: 180
